src = ChEMBL document CHEMBL1201862

Tested on: UACC-257
Assay: NCI tumour cell line growth inhibition, 48 h
Activity calls are given as the source filed them. Rule as the data show it: active = GI50 up to about 1.1 µM and inactive = higher.
API: response.call in true (active), false (inactive)

Previously resolved entries follow.
[[record]]
molecule = "CC1(C)SCc2nc3ccccc3n21"
class = "false"

[[record]]
molecule = "O=[N+]([O-])c1ccc2c(c1)nc(Cc1ccccc1)n2C[C@@H]1CCCN2CCCCC12 (stereo not given in full)"
class = "false"

[[record]]
molecule = "O=C(O)C1C2C=CC(C2)C1c1ccccc1 (stereo not given)"
class = "false"

[[record]]
molecule = "CC(=O)OC1=C(c2ccccc2)S(=O)(=O)c2ccccc21"
class = "false"

[[record]]
molecule = "CC(Cc1cccc2c1Nc1ccccc1S2)N(C)CCO (stereo not given)"
class = "false"


What was the test verdict on COc1ccc(CC2c3c(cc(OC)c(OC)c3OC)CCN2C)cc1OC (stereo not given) ?
false

For this molecule, state the assay outcome: O=C(O)C(Sc1ccc(Cl)cc1)Sc1ccc(Cl)cc1
false
